Origin of measurements: patent US7863449B2

Listing of entries alongside the reported Emax.
target: M4 muscarinic receptor (Homo sapiens); construct: expressed in transfected cells; host or cells: CHO (M4-CHO); assay: Functional mobilization of intracellular calcium (FLIPR), M4-CHO cells; assay type: cell-based; conditions: 100% efficacy is the maximum response obtained using Carbachol as a control
Sequence (P08173 whole entry): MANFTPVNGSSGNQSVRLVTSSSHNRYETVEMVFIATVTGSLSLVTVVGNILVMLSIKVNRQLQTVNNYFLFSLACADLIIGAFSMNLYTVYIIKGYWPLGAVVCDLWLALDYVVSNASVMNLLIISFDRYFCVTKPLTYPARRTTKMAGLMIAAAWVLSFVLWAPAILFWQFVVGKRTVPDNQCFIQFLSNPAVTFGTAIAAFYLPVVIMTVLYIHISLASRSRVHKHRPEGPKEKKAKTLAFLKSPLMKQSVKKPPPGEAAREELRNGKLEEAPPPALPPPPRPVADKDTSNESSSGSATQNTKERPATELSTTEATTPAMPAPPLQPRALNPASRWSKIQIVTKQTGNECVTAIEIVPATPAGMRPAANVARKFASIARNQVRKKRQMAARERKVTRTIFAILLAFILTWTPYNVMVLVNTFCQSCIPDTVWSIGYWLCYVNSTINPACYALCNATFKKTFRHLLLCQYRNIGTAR
measured.endpoint: Emax

[
  {
    "compound": "CCOC(=O)N1CCC(N2CCC3(CC2)CN(C(=O)N2CCCCC2)Cc2ccccc23)CC1",
    "experimental.target": "M4 muscarinic receptor (Homo sapiens)",
    "reported.measurement": "< 25%"
  },
  {
    "compound": "CCCOc1ccc(CN2CCC3(CC2)CN(C(C)=O)Cc2ccccc23)cc1",
    "experimental.target": "M4 muscarinic receptor (Homo sapiens)",
    "reported.measurement": "< 25%"
  },
  {
    "compound": "CCOC(=O)N1C2CCC1CC(N1CCC3(CC1)CN(S(C)(=O)=O)Cc1ccccc13)C2 (centres unmarked)",
    "experimental.target": "M4 muscarinic receptor (Homo sapiens)",
    "reported.measurement": "25 to 100%"
  },
  {
    "compound": "CCOC(=O)N1C2CCC1CC(N1CCC3(CC1)CN(C(=O)OC1CCCC1)Cc1ccccc13)C2 (centres unmarked)",
    "experimental.target": "M4 muscarinic receptor (Homo sapiens)",
    "reported.measurement": "25 to 100%"
  },
  {
    "compound": "CCOC(=O)N1CCC(N2CCC3(CC2)CN(CC2CCCCC2)Cc2ccccc23)CC1",
    "experimental.target": "M4 muscarinic receptor (Homo sapiens)",
    "reported.measurement": "< 25%"
  },
  {
    "compound": "CCOC(=O)N1CCC(CN2CCC3(CC2)CN(C(=O)c2ccccn2)Cc2ccccc23)CC1",
    "experimental.target": "M4 muscarinic receptor (Homo sapiens)",
    "reported.measurement": "25 to 100%"
  },
  {
    "compound": "CCOC(=O)N1C2CCC1CC(N1CCC3(CC1)CN(S(=O)(=O)c1ccc(C)cc1)Cc1ccccc13)C2 (centres unmarked)",
    "experimental.target": "M4 muscarinic receptor (Homo sapiens)",
    "reported.measurement": "25 to 100%"
  },
  {
    "compound": "COCCOC(=O)N1C2CCC1CC(N1CCC3(CC1)CN(C(=O)OC)Cc1ccccc13)C2 (centres unmarked)",
    "experimental.target": "M4 muscarinic receptor (Homo sapiens)",
    "reported.measurement": "25 to 100%"
  }
]

* * *

Listing of entries alongside the reported Emax.
biological target: M1 muscarinic receptor (Homo sapiens); construct: expressed in transfected cells; host or cells: CHO (M1-CHO); assay: Functional mobilization of intracellular calcium (FLIPR), M1-CHO cells; format: cell-based; conditions: 100% efficacy is the maximum response obtained using Carbachol as a control
Sequence (P11229 whole entry): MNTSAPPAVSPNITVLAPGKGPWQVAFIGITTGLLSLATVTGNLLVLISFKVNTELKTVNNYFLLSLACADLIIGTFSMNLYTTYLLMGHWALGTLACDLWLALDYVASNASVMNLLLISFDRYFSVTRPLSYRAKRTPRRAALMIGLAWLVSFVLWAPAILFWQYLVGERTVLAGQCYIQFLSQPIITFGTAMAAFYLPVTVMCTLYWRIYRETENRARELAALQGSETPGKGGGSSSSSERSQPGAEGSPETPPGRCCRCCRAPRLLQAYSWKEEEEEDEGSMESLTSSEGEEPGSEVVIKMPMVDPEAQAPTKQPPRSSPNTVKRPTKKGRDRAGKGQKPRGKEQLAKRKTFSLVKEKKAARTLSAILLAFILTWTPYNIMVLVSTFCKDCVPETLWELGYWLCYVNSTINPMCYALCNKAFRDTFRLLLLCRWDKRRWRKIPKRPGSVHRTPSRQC

[
  {
    "compound": "CCOC(=O)N1C2CCC1CC(N1CCC3(CC1)CN(C(=O)C1CCC1)Cc1ccccc13)C2 (stereo not drawn) [compound 319]",
    "Emax": "25 to 100%"
  },
  {
    "compound": "CCOC(=O)N1CCC(N2CCC3(CC2)CN(S(=O)(=O)N(C)C)Cc2ccccc23)CC1 [compound 176]",
    "Emax": "25 to 100%"
  },
  {
    "compound": "CC(=O)N1Cc2ccccc2C2(CCN(Cc3ccc4c(c3)CCO4)CC2)C1 [compound 116]",
    "Emax": "< 25%"
  },
  {
    "compound": "CCOC(=O)N1CCC(N2CCC3(CC2)OC(=O)c2cc(Cl)ccc23)CC1 [compound 230]",
    "Emax": "25 to 100%"
  },
  {
    "compound": "CC(=O)N1Cc2ccccc2C2(CCN(Cc3ccccc3Cl)CC2)C1 [compound 152]",
    "Emax": "< 25%"
  },
  {
    "compound": "CCOC(=O)N1CCC(CN2CCC3(CC2)CN(C(=O)c2cnon2)Cc2ccccc23)CC1 [compound 329]",
    "Emax": "25 to 100%"
  },
  {
    "compound": "C#CCOC(=O)N1C2CCC1CC(N1CCC3(CC1)CN(C(C)=O)Cc1ccccc13)C2 (stereo not drawn) [compound 156]",
    "Emax": "25 to 100%"
  },
  {
    "compound": "CCOC(=O)N1C2CCC1CC(N1CCC3(CC1)CN(S(=O)(=O)c1ccc(C(F)(F)F)cc1)Cc1ccccc13)C2 (stereo not drawn) [compound 251]",
    "Emax": "25 to 100%"
  },
  {
    "compound": "CC(=O)N1Cc2ccccc2C2(CCN(Cc3cc(C)c(C)o3)CC2)C1 [compound 101]",
    "Emax": "< 25%"
  },
  {
    "compound": "CCOC(=O)N1CCC(N2CCC3(CC2)CN(C(=O)C2CCC2)Cc2ccccc23)CC1 [compound 250]",
    "Emax": "25 to 100%"
  },
  {
    "compound": "CCOC(=O)N1CCC(N2CCC3(CC2)CN(C(=O)c2snnc2C)Cc2ccccc23)CC1 [compound 328]",
    "Emax": "25 to 100%"
  },
  {
    "compound": "CCOC(=O)N1CCC(N2CCC3(CC2)OC(=O)c2ccc(C)cc23)CC1 [compound 277]",
    "Emax": "25 to 100%"
  },
  {
    "compound": "CC(C)OC(=O)N1C2CCC1CC(N1CCC3(CC1)CN(S(=O)(=O)N(C)C)Cc1ccccc13)C2 (stereo not drawn) [compound 241]",
    "Emax": "25 to 100%"
  },
  {
    "compound": "CCOC(=O)N1CC[C@H](CN2CCC3(CC2)CN(C(C)=O)Cc2ccccc23)C1 [compound 320]",
    "Emax": "25 to 100%"
  },
  {
    "compound": "CCOC(=O)N1CCC(CN2CCC3(CC2)CN(C(=O)C(C)C)Cc2ccccc23)CC1 [compound 270]",
    "Emax": "25 to 100%"
  },
  {
    "compound": "CCOC(=O)N1CCC(CN2CCC3(CC2)CN(C(=O)OC2CCCC2)Cc2ccccc23)CC1 [compound 263]",
    "Emax": "25 to 100%"
  },
  {
    "compound": "CC(=O)N1Cc2ccccc2C2(CCN(Cc3ccccc3O)CC2)C1 [compound 297]",
    "Emax": "< 25%"
  },
  {
    "compound": "CCOC(=O)N1CC[C@@H](CN2CCC3(CC2)CN(C(C)=O)Cc2ccccc23)C1 [compound 216]",
    "Emax": "25 to 100%"
  },
  {
    "compound": "CC(=O)N1Cc2ccccc2C2(CCN(Cc3sc(C)nc3C)CC2)C1 [compound 301]",
    "Emax": "< 25%"
  },
  {
    "compound": "CCCOC(=O)N1CC(CN2CCC3(CC2)CN(C(C)=O)Cc2ccccc23)C1 [compound 287]",
    "Emax": "< 25%"
  },
  {
    "compound": "CCOC(=O)N1CCC(N2CCC3(CC2)CN(C(=O)NC(C)(C)C)Cc2ccccc23)CC1 [compound 53]",
    "Emax": "25 to 100%"
  },
  {
    "compound": "CC(=O)N1Cc2ccccc2C2(CCN(Cc3cc4ccccc4s3)CC2)C1 [compound 191]",
    "Emax": "< 25%"
  },
  {
    "compound": "CC(=O)N1Cc2ccccc2C2(CCN(C3CCOCC3)CC2)C1 [compound 215]",
    "Emax": "25 to 100%"
  },
  {
    "compound": "CCOC(=O)N1CCC(CN2CCC3(CC2)CN(C(=O)OC2CCC2)Cc2ccccc23)CC1 [compound 315]",
    "Emax": "25 to 100%"
  },
  {
    "compound": "CCCOC(=O)N1C2CCC1CC(N1CCC3(CC1)CN(S(=O)(=O)CCC)Cc1ccccc13)C2 (stereo not drawn) [compound 353]",
    "Emax": "25 to 100%"
  },
  {
    "compound": "CC(=O)N1Cc2ccccc2C2(CCN(CC3CCCCC3)CC2)C1 [compound 35]",
    "Emax": "< 25%"
  },
  {
    "compound": "CCOC(=O)N1CCC(CN2CCC3(CC2)CN(S(=O)(=O)c2ccc(F)cc2)Cc2ccccc23)CC1 [compound 345]",
    "Emax": "25 to 100%"
  },
  {
    "compound": "CCOC(=O)N1CCC(N2CCC3(CC2)CN(CC#Cc2ccccc2)Cc2ccccc23)CC1 [compound 9]",
    "Emax": "25 to 100%"
  },
  {
    "compound": "CCOC(=O)N1C2CCC1CC(N1CCC3(CC1)CN(C(=O)c1cnoc1C)Cc1ccccc13)C2 (stereo not drawn) [compound 213]",
    "Emax": "25 to 100%"
  },
  {
    "compound": "CC(=O)N1Cc2ccccc2C2(CCN(Cc3ccoc3)CC2)C1 [compound 139]",
    "Emax": "< 25%"
  },
  {
    "compound": "CC(=O)N1Cc2ccccc2C2(CCN(C3CCCCC3)CC2)C1 [compound 294]",
    "Emax": "25 to 100%"
  },
  {
    "compound": "COC(=O)N1CCC(CN2CCC3(CC2)CN(C(C)=O)Cc2ccccc23)CC1 [compound 74]",
    "Emax": "25 to 100%"
  },
  {
    "compound": "CCOC(=O)C1CCC(N2CCC3(CC2)CN(C(C)=O)Cc2ccccc23)CC1 (stereo not drawn) [compound 68]",
    "Emax": "25 to 100%"
  }
]
